- subject.of.test: cAMP-specific 3',5'-cyclic phosphodiesterase 4B [316-320,321-700,S319G,N320S,N321H,T322M] (Homo sapiens, UniProt Q07343, S319G/N320S/N321H/T322M)
- Construct: 316-320,321-700
- method.description: Phosphodiesterase (PDE) Inhibition Assay
- assay.conditions: pH 7.5; 30 °C
pIC50: −log10 of the molar value.

>  <structure.as.smiles>
COC(=O)c1c(-c2cc(C)on2)n[nH]c1C

>  <comparator>
<

>  <pIC50>
3.70

$$$$
>  <structure.as.smiles>
CCOC(=O)c1c(C)n[nH]c1C

>  <comparator>
=

>  <pIC50>
4.22

$$$$
>  <structure.as.smiles>
CCOC(=O)c1c(C)nn(-c2ccc([N+](=O)[O-])cc2)c1C

>  <comparator>
=

>  <pIC50>
6.08

$$$$
>  <structure.as.smiles>
CCOC(=O)c1c(C)nn(-c2ccc(S(N)(=O)=O)cc2)c1C

>  <comparator>
=

>  <pIC50>
4.89

$$$$
>  <structure.as.smiles>
CCOC(=O)c1c[nH]nc1C(F)(F)F

>  <comparator>
<

>  <pIC50>
3.70

$$$$
>  <structure.as.smiles>
CCOC(=O)c1c(C)nn(-c2cc(C(F)(F)F)cc(C(F)(F)F)c2)c1C

>  <comparator>
=

>  <pIC50>
3.80

$$$$
>  <structure.as.smiles>
Cc1n[nH]c(C)c1C(=O)O

>  <comparator>
<

>  <pIC50>
3.70

$$$$
>  <structure.as.smiles>
CCOC(=O)c1c(C)nn(-c2ccc(N)cc2)c1C

>  <comparator>
=

>  <pIC50>
6.46

$$$$
>  <structure.as.smiles>
CCOC(=O)c1c(C)nn(-c2ccc(OC(F)(F)F)cc2)c1C

>  <comparator>
=

>  <pIC50>
4.49

$$$$
>  <structure.as.smiles>
CCOC(=O)c1c(-c2ccc(OC)cc2)n[nH]c1N

>  <comparator>
=

>  <pIC50>
4.82

$$$$
>  <structure.as.smiles>
CCOC(=O)c1c(C)nn(-c2cccc3cccnc23)c1C

>  <comparator>
=

>  <pIC50>
4.77

$$$$
>  <structure.as.smiles>
CCOC(=O)c1c(C)nn(-c2ccc(C(C)(C)C)cc2)c1C

>  <comparator>
=

>  <pIC50>
4.72

$$$$
>  <structure.as.smiles>
CCOC(=O)c1c(C)nn(-c2ccc([N+](=O)[O-])cc2[N+](=O)[O-])c1C

>  <comparator>
=

>  <pIC50>
4.77

$$$$
>  <structure.as.smiles>
CCOC(=O)c1c(C)nn(-c2ccccc2)c1C

>  <comparator>
=

>  <pIC50>
6.51

$$$$

Cited source: BindingDB's records for doi:10.1038/nbt1059
